ASSAY METHOD TEXT: Phase I single dose study, plasma pharmacokinetics
Assay type: in vivo, human
RUN PARAMETERS: human; plasma, single oral dose CMX157 200 mg, mean; read-out: CMX157 Cmax
TEST READOUT: Cmax (ng/mL)
Express it in ng/mL; write the number only.

Exercise: Recorded Cmax for CCCCCCCCCCCCCCCCOCCCOP(=O)(O)CO[C@H](C)Cn1cnc2c(N)ncnc21 [CMX157] , please?
Solution: 74

----------
ASSAY METHOD TEXT: Phase I single dose study, plasma pharmacokinetics
Format: in vivo, human
RUN PARAMETERS: human; plasma, single oral dose CMX157 400 mg, mean; read-out: CMX157 AUCINF
TEST READOUT: AUC(0-inf) (ng·h/mL)
Unit ng·h/mL implied. Number only.

Exercise: Item CCCCCCCCCCCCCCCCOCCCOP(=O)(O)CO[C@H](C)Cn1cnc2c(N)ncnc21 has what recorded AUC(0-inf)?
Solution: 376
